These data points were gathered from the supplement of paper PMC13380429.

System: Vero E6
experimentalDetails: cell viability relative to DMSO; higher = less toxic
assaySetup: 72 h; 10 nM
Each entry below lists one item and its recorded cell viability value.

molecule	cell viability (%)
CCCC(=O)O[C@]1(C(=O)CCl)[C@@H](C)C[C@H]2[C@@H]3CCC4=CC(=O)C=C[C@]4(C)[C@@]3(F)C(=O)C[C@@]21C [clobetasone-butyrate]	102
CC(CNS(=O)(=O)C(C)C)c1ccc(-c2ccc(C#N)cc2)cc1 (configuration not stated)	99.9
CCOc1cc2ncc(C#N)c(Nc3ccc(OCc4cccc(F)c4)c(Cl)c3)c2cc1NC(=O)/C=C/CN(C)C	106
C=CC[C@@H]1/C=C(\C)C[C@H](C)C[C@H](OC)[C@H]2O[C@@](O)(C(=O)C(=O)N3CCCC[C@H]3C(=O)O[C@H](/C(C)=C/[C@@H]3CC[C@@H](O)[C@H](OC)C3)[C@H](C)[C@@H](O)CC1=O)[C@H](C)C[C@@H]2OC	91.6
Cc1cc(N2CCOCC2)cc2[nH]c(-c3c(NC[C@@H](O)c4cccc(Cl)c4)cc[nH]c3=O)nc12	101
CC(=O)[C@H]1CC[C@H]2[C@@H]3C[C@H](C)C4=CC(=O)CC[C@]4(C)[C@H]3[C@@H](O)C[C@]12C	95
O=C(Nc1ccc(C(O)(C(F)(F)F)C(F)(F)F)cc1)c1ccc(C(F)(F)F)cc1	100
